Each recorded value in this set is attributed to ChEMBL document CHEMBL3102775.

# Method: Cytotoxicity against human Huh7ET cells by neutral red assay
# Format: cell-based, Huh-7
# Condition description: Huh7ET cells
Each item that follows carries a reported CC50.

COC(=O)c1cccc2oc(-c3ccc4ccc(OCc5ccccc5)cc4c3O)nc12: > 20 µM

# context switch: different compound, same CC50
Data request: Look at this compound and give its reported CC50. COC(=O)c1cccc2oc(-c3ccc4c(OCc5ccccc5)cccc4c3O)nc12
Data returned: > 20 µM

----------
Each item that follows carries a reported CC50.
# Method: Cytotoxicity against human Huh7ET cells by neutral red assay
# Format: cell-based, Huh-7
# Condition description: huh-7
Express the result in µM but write the number alone.

COC(=O)c1cccc2oc(-c3cccc4oc(-c5ccccc5O)nc34)nc12: 17
O=C(O)c1cccc2oc(-c3ccccc3O)nc12: 3.5
COC(=O)c1cccc2oc(-c3ccc4ccccc4c3O)nc12: 2.5

# context switch: different compound, same CC50
Data request: Look at this compound and give its reported CC50. COC(=O)c1cccc2oc(-c3ccccc3O)nc12
Data returned: 5.4

----------
# Method: Inhibition of HCV NS3 NTPase/helicase domain expressed in Escherichia coli BL21 using dsRNA as substrate assessed as strand separation of [32P]-labeled oligonucleotides after 30 mins by SDS-gel electrophoresis
# Parameters: species or system Hepacivirus hominis
Each item that follows carries a reported IC50.
Express the result in µM but write the number alone.

Record excerpt, results attached:
COC(=O)c1cccc2oc(-c3ccc4ccc(OCc5ccccc5)cc4c3O)nc12: 20
COC(=O)c1cccc2oc(-c3ccc4c(OCc5ccccc5)cccc4c3O)nc12: 20

# context switch: different compound, same IC50
Data request: Look at this compound and give its reported IC50. COC(=O)c1cccc2oc(-c3ccc4ccccc4c3O)nc12
Data returned: 590

----------
# Test system: Human immunodeficiency virus 1
# Method: Antiviral activity against HIV1
# Type: functional, organism-based
The source made the active and inactive calls. The rule behind the calls is not given here.
Reported property: Activity

CNC(=O)c1cccc2oc(-c3ccccc3O)nc12: inactive
COC(=O)c1cccc2oc(-c3ccc4ccccc4c3O)nc12: inactive
COC(=O)c1cccc2oc(-c3ccc4ccc(OCc5ccccc5)cc4c3O)nc12: inactive
O=C(O)c1cccc2oc(-c3ccccc3O)nc12: inactive
COC(=O)c1cccc2oc(-c3ccccc3O)nc12: inactive

# context switch: different compound, same Activity
Data request: Form: Entry = COC(=O)c1cccc2oc(-c3ccc4c(OCc5ccccc5)cccc4c3O)nc12 | System = Human immunodeficiency virus 1 | Activity = ____
Data returned: inactive

----------
# Method: Inhibition of HCV NS3 NTPase/helicase domain expressed in Escherichia coli BL21 using dsRNA as substrate assessed as strand separation of [32P]-labeled oligonucleotides after 30 mins by SDS-gel electrophoresis
# Parameters: species or system Hepacivirus hominis
pIC50: −log10 of the molar value.
Each item that follows carries a reported pIC50.

COC(=O)c1cccc2oc(-c3cccc4oc(-c5ccccc5O)nc34)nc12: < 2.92
O=C(O)c1cccc2oc(-c3ccccc3O)nc12: < 2.74
COC(=O)c1cccc2oc(-c3ccccc3O)nc12: < 2.74

Data request: Look at this compound and give its reported pIC50. CNC(=O)c1cccc2oc(-c3ccccc3O)nc12
Data returned: < 2.74
